# assayed-system: purified PhnO protein (Escherichia coli, UniProt P16691, P2A)
# Construct: made in house; host or cells: E. coli JM101 carrying pMON15032 (recA promoter, nalidixic acid induction)
# Sequence (P16691 whole entry P2A): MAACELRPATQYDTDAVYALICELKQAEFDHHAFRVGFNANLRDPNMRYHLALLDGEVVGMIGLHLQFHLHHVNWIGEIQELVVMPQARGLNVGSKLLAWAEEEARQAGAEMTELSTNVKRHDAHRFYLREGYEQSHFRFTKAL
# assay-comment: AMPA transacylase acyl-CoA acyl donor specificity, HPLC
# Format: biochemical, E. coli
# condition-notes: acyl donor 0.1 mM, 5 minutes 30° C.
# Description: PhnO was purified from a one liter Luria Bertani broth culture of E. coli JM101 expressing a recombinant phnO gene from pMON15032 after nalidixic acid induction for three hours at 37° C. […] Forty 9 ml fractions were collected from the column eluate, and thirty microliters of each fraction was analyzed by western blot using anti-PhnO antiserum after resolution on a 15% SDS-PAGE gel. […]
attribute-measured: [^14C]-AMPA % Conversion (%)

• CC(C(=O)O)C(=O)SCCNC(=O)CCNC(=O)[C@H](O)C(C)(C)COP(=O)(O)OP(=O)(O)OC[C@H]1O[C@@H](n2cnc3c(N)ncnc32)[C@H](O)[C@@H]1OP(=O)(O)O (stereo partly shown) [Methylmalonyl-CoA, methylmalonyl CoA] = 1.11
• CCCCC(=O)SCCNC(=O)CCNC(=O)[C@H](O)C(C)(C)COP(=O)(O)OP(=O)(O)OC[C@H]1O[C@@H](n2cnc3c(N)ncnc32)[C@H](O)[C@@H]1OP(=O)(O)O [Valeryl-CoA, n-valeryl-CoA] = 0.24
• CC(=O)SCCNC(=O)CCNC(=O)[C@H](O)C(C)(C)COP(=O)(O)OP(=O)(O)OC[C@H]1O[C@@H](n2cnc3c(N)ncnc32)[C@H](O)[C@@H]1OP(=O)(O)O [Acetyl-CoA] = 79.2
• CC(C)C(=O)SCCNC(=O)CCNC(=O)[C@H](O)C(C)(C)COP(=O)(O)OP(=O)(O)OC[C@H]1O[C@@H](n2cnc3c(N)ncnc32)[C@H](O)[C@@H]1OP(=O)(O)O [Isobutyryl-CoA, isobutyryl-CoA] = 2.10
• C/C=C(\C)C(=O)SCCNC(=O)CCNC(=O)[C@H](O)C(C)(C)COP(=O)(O)OP(=O)(O)OC[C@H]1O[C@@H](n2cnc3c(N)ncnc32)[C@H](O)[C@@H]1OP(=O)(O)O [Tiglyl-CoA, tiglyl-CoA] = 0.00
• CC(C)(COP(=O)(O)OP(=O)(O)OC[C@H]1O[C@@H](n2cnc3c(N)ncnc32)[C@H](O)[C@@H]1OP(=O)(O)O)[C@@H](O)C(=O)NCCC(=O)NCCSC(=O)CCCC(=O)O [Glutaryl-CoA, glutaryl-CoA] = 0.81
• CCNC(=O)CCNC(=O)[C@H](O)C(C)(C)COP(=O)(O)OP(=O)(O)OC[C@H]1O[C@@H](n2cnc3c(N)ncnc32)[C@H](O)[C@@H]1OP(=O)(O)O [Desulfo-CoA, desulfo-CoA] = 0.95
• CC(C)(COP(=O)(O)OP(=O)(O)OC[C@H]1O[C@@H](n2cnc3c(N)ncnc32)[C@H](O)[C@@H]1OP(=O)(O)O)[C@@H](O)C(=O)NCCC(=O)NCCSC(=O)CCC(=O)O [Succinyl-CoA, succinyl-CoA] = 5.06
• C/C=C/C(=O)SCCNC(=O)CCNC(=O)[C@H](O)C(C)(C)COP(=O)(O)OP(=O)(O)OC[C@H]1O[C@@H](n2cnc3c(N)ncnc32)[C@H](O)[C@@H]1OP(=O)(O)O [Crotonoyl-CoA, crotonoyl-CoA] = 0.80
• CCC(=O)SCCNC(=O)CCNC(=O)[C@H](O)C(C)(C)COP(=O)(O)OP(=O)(O)OC[C@H]1O[C@@H](n2cnc3c(N)ncnc32)[C@H](O)[C@@H]1OP(=O)(O)O [Propionyl-CoA, n-propionyl-CoA] = 78.2

* * *

# assayed-system: purified PhnO protein (Escherichia coli, UniProt P16691, P2A)
# Construct: made in house; host or cells: E. coli JM101 carrying pMON15032 (recA promoter, nalidixic acid induction)
# assay-comment: AMPA transacylase acyl-CoA acyl donor specificity, HPLC
# Format: biochemical, E. coli
# condition-notes: acyl donor 1 mM; 1 mM acetyl-CoA = 100% reference
Binary call on % Activity with cut-off 0.6%: strictly below means Criterion met, and equality or higher means Criterion not met.

- CC(C)(COP(=O)(O)OP(=O)(O)OC[C@H]1O[C@@H](n2cnc3c(N)ncnc32)[C@H](O)[C@@H]1OP(=O)(O)O)[C@@H](O)C(=O)NCCC(=O)NCCSC(=O)CCCC(=O)O: Criterion met
- CC(C)C(=O)SCCNC(=O)CCNC(=O)[C@H](O)C(C)(C)COP(=O)(O)OP(=O)(O)OC[C@H]1O[C@@H](n2cnc3c(N)ncnc32)[C@H](O)[C@@H]1OP(=O)(O)O: Criterion met
- CCCCC(=O)SCCNC(=O)CCNC(=O)[C@H](O)C(C)(C)COP(=O)(O)OP(=O)(O)OC[C@H]1O[C@@H](n2cnc3c(N)ncnc32)[C@H](O)[C@@H]1OP(=O)(O)O: Criterion met
- C/C=C(\C)C(=O)SCCNC(=O)CCNC(=O)[C@H](O)C(C)(C)COP(=O)(O)OP(=O)(O)OC[C@H]1O[C@@H](n2cnc3c(N)ncnc32)[C@H](O)[C@@H]1OP(=O)(O)O: Criterion not met
- CC(=O)SCCNC(=O)CCNC(=O)[C@H](O)C(C)(C)COP(=O)(O)OP(=O)(O)OC[C@H]1O[C@@H](n2cnc3c(N)ncnc32)[C@H](O)[C@@H]1OP(=O)(O)O: Criterion not met
- CCNC(=O)CCNC(=O)[C@H](O)C(C)(C)COP(=O)(O)OP(=O)(O)OC[C@H]1O[C@@H](n2cnc3c(N)ncnc32)[C@H](O)[C@@H]1OP(=O)(O)O: Criterion met

* * *

# assayed-system: purified PhnO protein (Escherichia coli, UniProt P16691, P2A)
# Construct: made in house; host or cells: E. coli JM101 carrying pMON15032 (recA promoter, nalidixic acid induction)
# assay-comment: AMPA transacylase acyl-CoA acyl donor specificity, HPLC
# Type: biochemical, E. coli
# condition-notes: acyl donor 0.5 mM, 5 minutes 30° C.
attribute-measured: [^14C]-AMPA % Conversion

• CCCCC(=O)SCCNC(=O)CCNC(=O)[C@H](O)C(C)(C)COP(=O)(O)OP(=O)(O)OC[C@H]1O[C@@H](n2cnc3c(N)ncnc32)[C@H](O)[C@@H]1OP(=O)(O)O [Valeryl-CoA, n-valeryl-CoA] = 0.00%
• C/C=C(\C)C(=O)SCCNC(=O)CCNC(=O)[C@H](O)C(C)(C)COP(=O)(O)OP(=O)(O)OC[C@H]1O[C@@H](n2cnc3c(N)ncnc32)[C@H](O)[C@@H]1OP(=O)(O)O [Tiglyl-CoA, tiglyl-CoA] = 0.00%
• CCNC(=O)CCNC(=O)[C@H](O)C(C)(C)COP(=O)(O)OP(=O)(O)OC[C@H]1O[C@@H](n2cnc3c(N)ncnc32)[C@H](O)[C@@H]1OP(=O)(O)O [Desulfo-CoA, desulfo-CoA] = 1.25%
• CCC(=O)SCCNC(=O)CCNC(=O)[C@H](O)C(C)(C)COP(=O)(O)OP(=O)(O)OC[C@H]1O[C@@H](n2cnc3c(N)ncnc32)[C@H](O)[C@@H]1OP(=O)(O)O [Propionyl-CoA, n-propionyl-CoA] = 97.8%
• CC(C)(COP(=O)(O)OP(=O)(O)OC[C@H]1O[C@@H](n2cnc3c(N)ncnc32)[C@H](O)[C@@H]1OP(=O)(O)O)[C@@H](O)C(=O)NCCC(=O)NCCSC(=O)CCCC(=O)O [Glutaryl-CoA, glutaryl-CoA] = 0.00%
• CC(C)C(=O)SCCNC(=O)CCNC(=O)[C@H](O)C(C)(C)COP(=O)(O)OP(=O)(O)OC[C@H]1O[C@@H](n2cnc3c(N)ncnc32)[C@H](O)[C@@H]1OP(=O)(O)O [Isobutyryl-CoA, isobutyryl-CoA] = 0.20%
• CC(C)(COP(=O)(O)OP(=O)(O)OC[C@H]1O[C@@H](n2cnc3c(N)ncnc32)[C@H](O)[C@@H]1OP(=O)(O)O)[C@@H](O)C(=O)NCCC(=O)NCCSC(=O)CCC(=O)O [Succinyl-CoA, succinyl-CoA] = 3.38%
• CC(=O)SCCNC(=O)CCNC(=O)[C@H](O)C(C)(C)COP(=O)(O)OP(=O)(O)OC[C@H]1O[C@@H](n2cnc3c(N)ncnc32)[C@H](O)[C@@H]1OP(=O)(O)O [Acetyl-CoA] = 98.7%
• C/C=C/C(=O)SCCNC(=O)CCNC(=O)[C@H](O)C(C)(C)COP(=O)(O)OP(=O)(O)OC[C@H]1O[C@@H](n2cnc3c(N)ncnc32)[C@H](O)[C@@H]1OP(=O)(O)O [Crotonoyl-CoA, crotonoyl-CoA] = 0.00%
• CC(C(=O)O)C(=O)SCCNC(=O)CCNC(=O)[C@H](O)C(C)(C)COP(=O)(O)OP(=O)(O)OC[C@H]1O[C@@H](n2cnc3c(N)ncnc32)[C@H](O)[C@@H]1OP(=O)(O)O (stereo partly shown) [Methylmalonyl-CoA, methylmalonyl CoA] = 2.08%
